Catalogue of EC50 readings, one per entry.
Assay: Inhibition of Bcr-Abl E255K mutant in mouse BA/F3 cells assessed as cell growth inhibition
Conditions: BaF3
Expressed in nM, but write only the number.

Solved entries:
Hello, please tell me recorded EC50 for this one: `CN1CCN(C(=O)c2cc3c(Nc4ccc(OC(F)(F)F)cc4)ncnc3s2)CC1`
1330

For the compound `FC(F)(F)Oc1ccc(Nc2cc(-c3cn[nH]c3)ncn2)cc1` , give its reported EC50.
520

Identify the reported EC50 for the following entry. `FC(F)(F)Oc1ccc(Nc2ncnc3c2ccn3CCN2CCOCC2)cc1`
1220

Answer with reported EC50 of `OCCn1ncc2c(Nc3ccc(OC(F)(F)F)cc3)ncnc21`
1610

State its EC50 for this compound: `NC(=O)c1cccc(-c2cc(Nc3ccc(OC(F)(F)F)cc3)ncn2)c1`
600

For the compound `CC(C)(C)n1ncc2c(Nc3ccc(OC(F)(F)F)cc3)ncnc21` , report EC50.
500

Specify measured EC50 for `CS(=O)(=O)Nc1ccc(-c2cc(Nc3ccc(OC(F)(F)F)cc3)ncn2)cc1` .
360

Could you please provide reported EC50 for `NS(=O)(=O)c1ccc(-c2cc(Nc3ccc(OC(F)(F)F)cc3)ncn2)cc1` ? Thanks!
310

// next entry
Determine its reported EC50: `O=C(NCCO)c1cccc(-c2cc(Nc3ccc(OC(F)(F)F)cc3)ncn2)c1`
580
